Tested on: Trypanosoma brucei
PROTOCOL_SUMMARY: Trypanosoma brucei 72 hour study
Type: functional, organism-based
Parameters: scale not given: in the data most compounds retested in dose-response had high values
CONDITION: 30.3 µM; […]
About 960 (1.5%) of roughly 66,000 compounds showed an effect of 50% or more. The sample as a whole holds a higher share of strong results than the screen did.
Label class 1 when Percent Effect is at or above -30%; otherwise label class 0.

Answered examples (3):
O=C1OCCN1CCCN1CCCC1c1ccc(O)cc1 (stereo not given) : class 0
CN(C)c1cccc(C2CCCN2CCCN2CCOC2=O)c1 (stereo not given) : class 1
O=C(c1cccc(Cn2ccnc2)c1)N1CCCC(n2cccn2)C1 (stereo not given) : class 1

Identify whether the reported Percent Effect of the following molecule is -30% or greater: O=C(O)C(F)(F)F.O=C([C@H]1CC[C@@H]2[C@@H](CCN2Cc2nccs2)O1)N1CCOCC1
class 0

In plain terms: is recorded Percent Effect at least -30% for O=C(O)C(F)(F)F.O=C(c1ccco1)N1CCC2(CCCN(c3ncccn3)C2)C1 (stereo not given) ?
class 0

Is reported Percent Effect greater than or equal to -30% here: Cc1cc(C)n(CC2CCCCN2C(=O)c2ccc3c(c2)COC3)n1 (stereo not given)
class 1

Given CN(C)C(=O)[C@@H]1C[C@@H]2[C@@H](CCN2Cc2nccs2)O1.O=C(O)C(F)(F)F , state whether its Percent Effect is at least -30%.
class 0

Check this molecule for Percent Effect at or above -30%: CN1CCN(C2COC3(CCN(c4ccc(C#N)cc4)CC3)C2)CC1.O=C(O)C(F)(F)F (stereo not given)
class 0

Reported Percent Effect at or above -30%? CCOCc1ccccc1NC(=O)NC1CCN(CC(F)(F)F)C1 (stereo not given)
class 1

Determine whether this molecule has Percent Effect no lower than -30%: Cc1csc2ncc(-c3ccnc(N4CCC[C@H](C(N)=O)C4)n3)c(=O)n12
class 1
